Taken from patent US5319097A.

- method notes: Acute toxicity study, mice
- experimental setup: mouse, in vivo
endpoint: LD50

Look at this compound and give its reported LD50. COc1cc(C(=O)NS(=O)(=O)c2ccccc2C)ccc1Cc1cn(C)c2ccc(NC(=O)OC3CCCC3)cc12
> 500 mg/kg
